sequences and their reported apparent KD of MS2 coat protein
Test system: MS2 coat protein
protocol details: apparent KD of MS2 coat protein; designed switch direction (-1 OFF switch, 1 ON switch): 1; higher = weaker reporter binding
test conditions: input ligand: none

construct sequence	apparent KD of MS2 coat protein
AGGCUCAGACUAGGAUAUAUGCGAUCACAUGAGGAUCACCCAUGUCUCGAGCUUCGGCUCGAGGCAUAGAAGGAGUCUGAGCCA [SSNG2/4-D1] (Eterna round: R96, puzzle: Same State NG 2)	57 nM
UUCACCUUAUUUUACAUGAGGAUCACCCAUGUUUUUUUUACGUAGGAUAUCGAUGCUUGAUUGUUCGAGAAGGACGAUGUAAGU [JR_SSND3_Sub054] (Eterna round: R96, puzzle: Same State NG 3)	31.1 nM
CUGCUCGUGUGAGGAUAUGCCGCCGUUUCGGCUGCAGAAGGUGCUACGUUACAUGAGGAUCACCCAUGUCUCUGUUGUUUCGUU [salish99_SSNG1_r04_947] (Eterna round: R96, puzzle: Same State NG 1)	22.8 nM
GCCAUCGAGUGAGGAUAUGGCACCGAAACGGUGCCAGAAGGCAUGUCAAAAGACAUGAGGAUCACCCAUGUAUUAUCGAUGGCA [Mat - Same State NG 1 - JL mod - D88] (Eterna round: R96, puzzle: Same State NG 1)	237 nM

====

Tested on: MS2 coat protein
protocol details: apparent KD of MS2 coat protein, switch OFF state (with FMN for OFF switches, without FMN for ON switches); designed switch direction (-1 OFF switch, 1 ON switch): 1; higher = weaker reporter binding
test conditions: FMN input: 0 or 200 uM; Eterna round: R93 (includes R88 designs)
Readings of apparent KD of MS2 coat protein for the listed sequences
reported endpoint: apparent KD of MS2 coat protein (nM)

construct sequence	tgt	reported value
AUAGAACAUGAGGAUCACCCAUGUAAAAAAGCAUGAGGAUAUAUAAGUAAAUAAAAUAAGAUAGAAGGCAUGAUAA [JR_SS001_Sub1701]	MS2 coat protein	91.4
AAAUAAAAGACUAAGGAUAUGUCGCAUGACACAUGAGGAUCACCCAUGUGGUAACACAGAGGGUGGCAGAAGGUAGUCAAAAAAC [Mod 1 of Pariah 6 (Round1) by Hyphema]	MS2 coat protein	446
AGAAAUAAAUGAGAGGAUAUCCAAAAGAAAACAUGAGGAUCACCCAUGUAAAAGAAAAUAAAAUGGGAGAAGGCUCGAAAUAAAG [80%, More Helter Skelter 2]	MS2 coat protein	68.5

====

Test system: MS2 coat protein
protocol details: apparent KD of MS2 coat protein, switch OFF state (with FMN for OFF switches, without FMN for ON switches); designed switch direction (-1 OFF switch, 1 ON switch): -1; higher = weaker reporter binding
test conditions: FMN input: 0 or 200 uM; Eterna round: R93 (includes R88 designs)
reported endpoint: apparent KD of MS2 coat protein (nM)

>>> df
                         construct_sequence               tgt  reported_value
0  CUCAUGUCAGGAUAUCAGUAGUAAAAAAAUAAAAUUACUACUGAGAAGGGACAUGAGGAUCACCCAUGUCCAAA [EX4 367: Super Stable 67]  MS2 coat protein            36.1
1  ACCAAUGGAGGAUAUACAUGAGGAUCACCCAUGUUUAUCCUACAUAGGUGAAAAACAUGUAGAAGGCCAUAGGA [EX3 237: Super Stable 37]  MS2 coat protein              12
2  AACUGACAUGAGGAUCACCCAUGUCAGGAUAUGAUAUGUAAAAAAAAAAAAAUACUUAUCAGAAGGGACAUGAA [Design 44: Sub-opt CB]  MS2 coat protein            14.1
3  AGCUAGAGAGGAUAUACGUGAGUGAUAAAAGUCUGAUAACUACAUGAGGAUCACCCAUGUAGAAGGCUCUAGCA [Ex2 Design 166: Sub-opt 30]  MS2 coat protein            22.2
4  CAGUACUGAGGAUAUACAUGAGGAUCACCCAUGUGUUCCAGCUAGGAAACUAGCACAUGUAGAAGGCAGUACUG [Ex3: 826]  MS2 coat protein            16.8
5  AAAAAGUGAGGAUAUACAUGAGGAUCACCCAUGUGAUAAAAAAAAAGGGUGGAAGAAAGUAGAAGGCACCAAAA [Ex 3 May 49]  MS2 coat protein            77.5
